System: HL-1
methodNotes: relative cell viability (CellTiter-Glo) vs DMSO control (% of DMSO control); higher = more viable cells
measurementConditions: oxygen condition: normoxia 72 h; 5000 nM
Counter-ions that a name gives are not always drawn.
Note to self: relative cell viability under 100 means Met, ties and anything higher get Not met.

molecule: CC(C)NCC(O)COc1cccc2ccccc12 (stereo not drawn) [Propranolol HCl]
classLabel: Not met
//
molecule: N=C(N)NC(=N)NCCc1ccccc1 [Phenformin hydrochloride]
classLabel: Met
//
molecule: OCCN(CCO)c1nc(N2CCCCC2)c2nc(N(CCO)CCO)nc(N3CCCCC3)c2n1
classLabel: Not met
//
molecule: CN(C)CCC(c1ccc(Cl)cc1)c1ccccn1 (stereo not drawn) [Chlorpheniramine Maleate]
classLabel: Not met
//
molecule: OCCN1C[C@H](O)[C@@H](O)[C@H](O)[C@H]1CO
classLabel: Not met
//
molecule: NCCS [Cysteamine HCl]
classLabel: Not met
//
molecule: O=C(Nc1c(Cl)cncc1Cl)c1ccc(OC(F)F)c(OCC2CC2)c1
classLabel: Met
//
molecule: CC[C@H]1OC(=O)[C@H](C)[C@@H](O[C@H]2C[C@@](C)(OC)[C@@H](O)[C@H](C)O2)[C@H](C)[C@@H](O[C@@H]2O[C@H](C)C[C@H](N(C)C)[C@H]2O)[C@](C)(OC)C[C@@H](C)C(=O)[C@H](C)[C@@H](O)[C@]1(C)O
classLabel: Not met
//
molecule: CC(C)(C)CC(C)(C)c1ccc(OCCOCC[N+](C)(C)Cc2ccccc2)cc1 [Benzethonium chloride]
classLabel: Met
//
molecule: O=c1[nH]c(=O)n(C2CCCO2)cc1F (stereo not drawn)
classLabel: Met
//
molecule: CCOc1nc2cccc(C(=O)O)c2n1Cc1ccc(-c2ccccc2-c2noc(=O)[nH]2)cc1
classLabel: Not met
//
molecule: CN(C)c1nc(N(C)C)nc(N(C)C)n1
classLabel: Not met
//
molecule: CC1(C)S[C@@H]2[C@H](NC(=O)[C@H](N)c3ccc(O)cc3)C(=O)N2[C@H]1C(=O)O
classLabel: Not met
//
molecule: NC(CO)C(=O)NNCc1ccc(O)c(O)c1O (stereo not drawn) [Benserazide]
classLabel: Not met
//
molecule: O=C(O)c1ccc(-n2nc(-c3ccccc3O)nc2-c2ccccc2O)cc1
classLabel: Met
//
molecule: NS(=O)(=O)c1cc(C(=O)O)c(NCc2ccco2)cc1Cl [Furosemide]
classLabel: Not met
//
molecule: CN(C)CCCN1c2ccccc2Sc2ccc(Cl)cc21
classLabel: Not met

* * *

System: HL-1
methodNotes: relative cell viability (CellTiter-Glo) vs DMSO control (% of DMSO control); higher = more viable cells
measurementConditions: oxygen condition: normoxia 72 h; 40 nM
Structures can show the parent of a compound that is named as a salt.
measuredMetric: relative cell viability

compound: c1cnc2cc3c(cc2n1)[C@@H]1CNC[C@H]3C1 [Varenicline tartrate]
measuredMetric: relative cell viability
testValue: 106
--
compound: C#C[C@]1(O)CC[C@H]2[C@@H]3CCC4=CC(=O)CC[C@@H]4[C@H]3CC[C@@]21CC [Levonorgestrel]
measuredMetric: relative cell viability
testValue: 107
--
compound: CCCCCCCCCCC[C@@H](C[C@@H]1OC(=O)[C@H]1CCCCCC)OC(=O)[C@H](CC(C)C)NC=O [Orlistat]
measuredMetric: relative cell viability
testValue: 108
--
compound: CC(=O)OCC(=O)NCCCOc1cccc(CN2CCCCC2)c1 [Roxatidine acetate HCl]
measuredMetric: relative cell viability
testValue: 110
--
compound: O=C(O)c1ccc(-n2nc(-c3ccccc3O)nc2-c2ccccc2O)cc1 [Deferasirox]
measuredMetric: relative cell viability
testValue: 97
--
compound: CNC(=O)c1cc(Oc2ccc(NC(=O)Nc3ccc(Cl)c(C(F)(F)F)c3)cc2)ccn1 [Sorafenib]
measuredMetric: relative cell viability
testValue: 109
--
compound: OC(CCN1CCCCC1)(c1ccccc1)C1CC2C=CC1C2 (configuration not stated) [Biperiden HCl]
measuredMetric: relative cell viability
testValue: 106

* * *

System: HL-1
methodNotes: relative cell viability (CellTiter-Glo) vs DMSO control (% of DMSO control); higher = more viable cells
measurementConditions: oxygen condition: normoxia 72 h; 5000 nM
Structures can show the parent of a compound that is named as a salt.
# if measured relative cell viability < 100: condition met  # else: condition not met

compound: O=C(O)CCCN1CCC(O[C@@H](c2ccc(Cl)cc2)c2ccccn2)CC1 [Bepotastine Besilate]
classLabel: condition not met
//
compound: Cc1nc2c([nH]1)-c1ccccc1N(C(=O)c1ccc(NC(=O)c3ccccc3-c3ccccc3)cc1)CC2 [Conivaptan HCl]
classLabel: condition met
//
compound: Nc1nc(Cl)nc2c1ncn2[C@@H]1O[C@H](CO)[C@@H](O)[C@@H]1F
classLabel: condition met
//
compound: Nc1[nH]cnc2ncnc1-2 [Adenine sulfate]
classLabel: condition not met
//
compound: CCN1CCC[C@H]1CNC(=O)c1cc(S(N)(=O)=O)ccc1OC [Levosulpiride]
classLabel: condition not met
//
compound: CNC[C@H](O)c1cccc(O)c1 [Phenylephrine HCl]
classLabel: condition not met
//
compound: Clc1ccc2c(c1)C(N1CCNCC1)=Nc1ccccc1O2
classLabel: condition not met

* * *

System: HL-1
methodNotes: relative cell viability (CellTiter-Glo) vs DMSO control (% of DMSO control); higher = more viable cells
measurementConditions: oxygen condition: normoxia 72 h; 200 nM
Counter-ions that a name gives are not always drawn.
# reported relative cell viability; entries follow
measuredMetric: relative cell viability

compound: N=C(N)NC(=N)NCCc1ccccc1 [Phenformin hydrochloride]
testValue: 103

compound: CCCCc1oc2ccccc2c1C(=O)c1cc(I)c(OCCN(CC)CC)c(I)c1 [Amiodarone HCl]
testValue: 110

compound: CCN(CC)CCOC(=O)C(c1ccccc1)c1ccccc1 [Adiphenine HCl]
testValue: 97.4

compound: Cc1ncc([N+](=O)[O-])n1CC(O)CCl (centres undefined)
testValue: 108

compound: COC(=O)C1=C(C)NC(C)=C(C(=O)OCCN2CCN(C(c3ccccc3)c3ccccc3)CC2)C1c1cccc([N+](=O)[O-])c1 (centres undefined)
testValue: 99.2

compound: Nc1ncnc2c1ncn2[C@@H]1O[C@H](CO)[C@@H](O)[C@H]1O
testValue: 108

compound: OC(CCN1CCCC1)(c1ccccc1)C1CCCCC1 (centres undefined) [Procyclidine HCl]
testValue: 97.7

compound: COc1ccc(-c2nc3cc(C4=NNC(=O)CC4C)ccc3[nH]2)cc1 (centres undefined)
testValue: 102

compound: Cc1c(N(C)C)c(=O)n(-c2ccccc2)n1C
testValue: 105

* * *

System: HL-1
methodNotes: relative cell viability (CellTiter-Glo) vs DMSO control (% of DMSO control); higher = more viable cells
measurementConditions: oxygen condition: normoxia 72 h; 1000 nM
Where a name gives a salt, the structure may show the parent alone.

compound: CN1CCC(=C2c3ccccc3C=Cc3ccccc32)CC1 [Cyproheptadine HCl]
relative cell viability: 102
//
compound: CN(C)CCOc1ccc(/C(=C(/CCCl)c2ccccc2)c2ccccc2)cc1 [Toremifene Citrate]
relative cell viability: 105
//
compound: CCN(CC)CC(=O)Nc1c(C)cccc1C
relative cell viability: 109
//
compound: CC(C)(C)c1ccc(C(O)CCCN2CCC(C(O)(c3ccccc3)c3ccccc3)CC2)cc1 (stereo not given)
relative cell viability: 76.7
//
compound: CNC[C@H](O)c1cccc(O)c1 [Phenylephrine HCl]
relative cell viability: 117

* * *

System: HL-1
methodNotes: relative cell viability (CellTiter-Glo) vs DMSO control (% of DMSO control); higher = more viable cells
measurementConditions: oxygen condition: hypoxia 48 h (1% O2) + reoxygenation 24 h; 40 nM
Where a name gives a salt, the structure may show the parent alone.
Lab note: compare relative cell viability with 100, writing MET if less and NOT MET if equal or more.

compound: Cc1onc(-c2ccccc2)c1C(=O)N[C@@H]1C(=O)N2[C@@H]1SC(C)(C)[C@@H]2C(=O)O [Oxacillin sodium monohydrate]
classLabel: NOT MET
//
compound: CS(=O)(=O)CCNCc1ccc(-c2ccc3ncnc(Nc4ccc(OCc5cccc(F)c5)c(Cl)c4)c3c2)o1 [Lapatinib Ditosylate]
classLabel: NOT MET
//
compound: O=C(c1cc(Cc2n[nH]c(=O)c3ccccc23)ccc1F)N1CCN(C(=O)C2CC2)CC1
classLabel: MET
//
compound: C[C@](N)(Cc1ccc(O)c(O)c1)C(=O)O
classLabel: NOT MET
//
compound: COc1ccc(CNc2nc(N3CCC[C@H]3CO)ncc2C(=O)NCc2ncccn2)cc1Cl
classLabel: MET
//
compound: NC12CC3CC(CC(C3)C1)C2 [Amantadine hydrochloride]
classLabel: NOT MET
//
compound: CC(C)(C(=O)O)c1ccc(C(O)CCCN2CCC(C(O)(c3ccccc3)c3ccccc3)CC2)cc1 (configuration not stated) [Fexofenadine HCl]
classLabel: NOT MET
//
compound: NS(=O)(=O)c1cc2c(cc1C(F)(F)F)NC(Cc1ccccc1)NS2(=O)=O (configuration not stated) [Bendroflumethiazide]
classLabel: MET
//
compound: C[C@@H](O[C@H]1OCCN(Cc2nn(P(=O)(O)O)c(=O)[nH]2)[C@H]1c1ccc(F)cc1)c1cc(C(F)(F)F)cc(C(F)(F)F)c1 [Fosaprepitant dimeglumine]
classLabel: NOT MET
//
compound: NC(=O)c1cccnc1 [Nicotinamide]
classLabel: MET
//
compound: Cc1cc(C#N)cc(C)c1Oc1nc(Nc2ccc(C#N)cc2)nc(N)c1Br
classLabel: NOT MET
//
compound: CN(C)CCCN1c2ccccc2Sc2ccc(Cl)cc21
classLabel: NOT MET
